- tested.on: Mu-type opioid receptor (Homo sapiens, UniProt P35372)
- Sequence (P35372 whole entry): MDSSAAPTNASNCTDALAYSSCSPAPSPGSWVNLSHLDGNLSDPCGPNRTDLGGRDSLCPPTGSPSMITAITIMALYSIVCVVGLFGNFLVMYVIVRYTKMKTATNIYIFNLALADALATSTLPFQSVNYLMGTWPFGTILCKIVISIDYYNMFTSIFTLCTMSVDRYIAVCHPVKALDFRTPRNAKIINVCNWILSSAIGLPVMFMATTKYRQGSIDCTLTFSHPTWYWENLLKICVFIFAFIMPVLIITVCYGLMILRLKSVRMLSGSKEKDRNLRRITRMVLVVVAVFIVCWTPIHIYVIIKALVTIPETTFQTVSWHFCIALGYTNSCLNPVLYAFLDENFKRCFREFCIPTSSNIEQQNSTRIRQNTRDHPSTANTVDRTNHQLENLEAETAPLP
pIC50: −log10 of the molar value.
Below is a list of entries, each paired with its recorded pIC50 value.

compound	pIC50
CCNC(=O)NC[C@@H]1Cc2ccccc2CN1C(=O)[C@@H](N)Cc1c(C)cc(O)cc1C	6.77
Cc1cc(O)cc(C)c1C[C@H](N)C(=O)N1Cc2ccccc2C[C@H]1CO	6.38
Cc1cc(O)cc(C)c1C[C@H](N)C(=O)N1Cc2ccccc2C[C@H]1CN	6.95
Cc1cc(O)cc(C)c1C[C@H](N)C(=O)N1Cc2ccccc2C[C@H]1CNC(=O)Nc1ccccc1	9.00

###

- tested.on: Delta-type opioid receptor (Homo sapiens, UniProt P41143)
- Sequence (P41143 whole entry): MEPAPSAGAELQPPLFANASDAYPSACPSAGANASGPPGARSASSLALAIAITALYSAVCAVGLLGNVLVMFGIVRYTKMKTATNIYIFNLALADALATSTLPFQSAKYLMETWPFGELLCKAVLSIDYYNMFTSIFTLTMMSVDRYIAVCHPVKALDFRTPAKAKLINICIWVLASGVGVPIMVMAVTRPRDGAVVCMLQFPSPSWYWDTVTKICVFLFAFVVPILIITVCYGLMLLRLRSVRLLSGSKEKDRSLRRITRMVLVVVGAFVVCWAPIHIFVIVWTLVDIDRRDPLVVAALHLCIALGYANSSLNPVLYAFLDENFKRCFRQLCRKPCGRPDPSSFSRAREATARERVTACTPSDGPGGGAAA
- assay: Binding affinity at cloned human delta-opioid receptor

compound	IC50 (nM)
Cc1cc(O)cc(C)c1C[C@H](N)C(=O)N1Cc2ccccc2C[C@H]1CNC(=O)Nc1ccccc1	0.13
Cc1cc(O)cc(C)c1C[C@H](N)C(=O)N1Cc2ccccc2C[C@H]1COCc1ccccc1	0.33
CC(=N)NC[C@@H]1Cc2ccccc2CN1C(=O)[C@@H](N)Cc1c(C)cc(O)cc1C	9.9

###

- tested.on: Kappa-type opioid receptor (Homo sapiens)
- Sequence (P41145 whole entry): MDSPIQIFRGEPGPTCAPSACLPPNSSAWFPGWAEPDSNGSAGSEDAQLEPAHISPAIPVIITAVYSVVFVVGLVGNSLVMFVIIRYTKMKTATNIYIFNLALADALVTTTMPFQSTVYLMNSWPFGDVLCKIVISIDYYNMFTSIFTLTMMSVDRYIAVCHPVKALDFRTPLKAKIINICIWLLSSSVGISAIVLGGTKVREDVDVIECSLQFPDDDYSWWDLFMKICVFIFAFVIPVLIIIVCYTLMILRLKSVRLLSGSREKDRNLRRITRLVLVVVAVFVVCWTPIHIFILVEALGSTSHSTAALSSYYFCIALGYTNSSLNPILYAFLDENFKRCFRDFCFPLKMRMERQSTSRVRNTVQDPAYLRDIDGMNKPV
- assay: Agonist potency using GTP-gamma [35S]- binding assay for opioid receptor kappa 1
measurement.name: log10 EC50 (log10 of the value in nM)

compound	log10 EC50
Cc1cc(O)cc(C)c1C[C@H](N)C(=O)N1Cc2ccccc2C[C@H]1CNC(=O)Nc1ccccc1	2.21
Cc1cc(O)cc(C)c1C[C@H](N)C(=O)N1Cc2ccccc2C[C@H]1CNCc1ccccc1	0.83
Cc1cc(O)cc(C)c1C[C@H](N)C(=O)N1Cc2ccccc2C[C@H]1CNC(=S)NC(C)(C)C	1.39
Cc1cc(O)cc(C)c1C[C@H](N)C(=O)N1Cc2ccccc2C[C@H]1CNCC(C)(C)C	0.15
Cc1cc(O)cc(C)c1C[C@H](N)C(=O)N1Cc2ccccc2C[C@H]1CNC(=O)NC(C)(C)C	0.84
Cc1cc(O)cc(C)c1C[C@H](N)C(=O)N1Cc2ccccc2C[C@H]1CNC(=O)NC12CC3CC(CC(C3)C1)C2	1.06

###

- tested.on: Delta-type opioid receptor (Homo sapiens)
- assay: Binding affinity at cloned human delta-opioid receptor
measurement.name: log10(IC50) (log10 of the value in nM)

compound	log10(IC50)
Cc1cc(O)cc(C)c1C[C@H](N)C(=O)N1Cc2ccccc2C[C@H]1CNCC(C)(C)C	0.00
Cc1cc(O)cc(C)c1C[C@H](N)C(=O)N1Cc2ccccc2C[C@H]1CNC(=O)C(C)(C)C	-0.10
CC(=O)OC[C@@H]1Cc2ccccc2CN1C(=O)[C@@H](N)Cc1c(C)cc(O)cc1C	0.04
Cc1cc(O)cc(C)c1C[C@H](N)C(=O)N1Cc2ccccc2C[C@H]1CN(C)C	-0.01
Cc1cc(O)cc(C)c1C[C@H](N)C(=O)N1Cc2ccccc2C[C@H]1CNC(=O)NC(C)(C)C	-0.77
Cc1cc(O)cc(C)c1C[C@H](N)C(=O)N1Cc2ccccc2C[C@H]1CNCc1ccccc1	-0.39
Cc1cc(O)cc(C)c1C[C@H](N)C(=O)N1Cc2ccccc2C[C@H]1CNC(=O)NC12CC3CC(CC(C3)C1)C2	-0.54
Cc1cc(O)cc(C)c1C[C@H](N)C(=O)N1Cc2ccccc2C[C@H]1CNC(=O)c1ccccc1	-0.62
CCNC(=O)NC[C@@H]1Cc2ccccc2CN1C(=O)[C@@H](N)Cc1c(C)cc(O)cc1C	0.00
Cc1cc(O)cc(C)c1C[C@H](N)C(=O)N1Cc2ccccc2C[C@H]1CNC(=S)NC(C)(C)C	-0.66
COC[C@@H]1Cc2ccccc2CN1C(=O)[C@@H](N)Cc1c(C)cc(O)cc1C	0.11
Cc1cc(O)cc(C)c1C[C@H](N)C(=O)N1Cc2ccccc2C[C@H]1CN=C(N)N	0.51
Cc1cc(O)cc(C)c1C[C@H](N)C(=O)N1Cc2ccccc2C[C@H]1CO	0.30
Cc1cc(O)cc(C)c1C[C@H](N)C(=O)N1Cc2ccccc2C[C@H]1CNC(=S)Nc1ccccc1	-0.57
C=CCOC[C@@H]1Cc2ccccc2CN1C(=O)[C@@H](N)Cc1c(C)cc(O)cc1C	-0.01
CC(=O)NC[C@@H]1Cc2ccccc2CN1C(=O)[C@@H](N)Cc1c(C)cc(O)cc1C	-0.10
Cc1cc(O)cc(C)c1C[C@H](N)C(=O)N1Cc2ccccc2C[C@H]1C	0.23
Cc1cc(O)cc(C)c1C[C@H](N)C(=O)N1Cc2ccccc2C[C@H]1CN=[N+]=[N-]	0.04
Cc1cc(O)cc(C)c1C[C@H](N)C(=O)N1Cc2ccccc2C[C@H]1CN	0.69
